Quick reference: GRinf of the listed items.
Test system: Mycobacterium tuberculosis Erdman (autoluminescent)
Test: GRinf, maximum normalised growth rate inhibition (three-drug combination) (unitless (-1 to 1)); higher = less effect (negative = killing)
Settings: in vitro model: cholesterol-high 0.2 mM; time point: terminal (~4-5 doublings, model-specific)
readout: GRinf

compound="CC[C@@H](CO)NCCN[C@@H](CC)CO [ethambutol] + COc1c(N2C[C@@H]3CCCN[C@@H]3C2)c(F)cc2c(=O)c(C(=O)O)cn(C3CC3)c12 [moxifloxacin] + O=[N+]([O-])c1cn2c(n1)OC[C@@H](OCc1ccc(OC(F)(F)F)cc1)C2 [pretomanid]" readout=GRinf recorded_measurement=-0.609
compound="COc1nc2ccc(Br)cc2cc1[C@@H](c1ccccc1)[C@@](O)(CCN(C)C)c1cccc2ccccc12 [bedaquiline] + NC(=O)c1cnccn1 [pyrazinamide] + CO[C@H]1/C=C/O[C@@]2(C)Oc3c(C)c(O)c4c(O)c(c(/C=N/N5CCN(C)CC5)c(O)c4c3C2=O)NC(=O)/C(C)=C\\C=C\\[C@H](C)[C@H](O)[C@@H](C)[C@@H](O)[C@@H](C)[C@H](OC(C)=O)[C@@H]1C [rifampicin]" readout=GRinf recorded_measurement=-0.624
compound="CC(C)/N=c1\\cc2n(-c3ccc(Cl)cc3)c3ccccc3nc-2cc1Nc1ccc(Cl)cc1 [clofazimine] + CC[C@@H](CO)NCCN[C@@H](CC)CO [ethambutol] + CO[C@H]1/C=C/O[C@@]2(C)Oc3c(C)c(O)c4c(O)c(c(/C=N/N5CCN(C6CCCC6)CC5)c(O)c4c3C2=O)NC(=O)/C(C)=C\\C=C\\[C@H](C)[C@H](O)[C@@H](C)[C@@H](O)[C@@H](C)[C@H](OC(C)=O)[C@@H]1C [rifapentine]" readout=GRinf recorded_measurement=-0.81

* * *

Quick reference: total FIC50 of the listed items.
System: Mycobacterium tuberculosis Erdman (autoluminescent)
Test: total FIC50 (Loewe) at 50% inhibition, three-drug combination (log2); higher = more antagonistic
Settings: in vitro model: valerate; time point: constant (~7 days, model-specific)
readout: total FIC50

compound="CC(C)/N=c1\\cc2n(-c3ccc(Cl)cc3)c3ccccc3nc-2cc1Nc1ccc(Cl)cc1 [clofazimine] + CC[C@@H](CO)NCCN[C@@H](CC)CO [ethambutol] + NC(=O)c1cnccn1 [pyrazinamide]" recorded_measurement=0.627
compound="CC[C@@H](CO)NCCN[C@@H](CC)CO [ethambutol] + NC(=O)c1cnccn1 [pyrazinamide] + CO[C@H]1/C=C/O[C@@]2(C)Oc3c(C)c(O)c4c(O)c(c(/C=N/N5CCN(C6CCCC6)CC5)c(O)c4c3C2=O)NC(=O)/C(C)=C\\C=C\\[C@H](C)[C@H](O)[C@@H](C)[C@@H](O)[C@@H](C)[C@H](OC(C)=O)[C@@H]1C [rifapentine]" recorded_measurement=0.105
compound="COc1nc2ccc(Br)cc2cc1[C@@H](c1ccccc1)[C@@](O)(CCN(C)C)c1cccc2ccccc12 [bedaquiline] + CC(C)/N=c1\\cc2n(-c3ccc(Cl)cc3)c3ccccc3nc-2cc1Nc1ccc(Cl)cc1 [clofazimine] + NC(=O)c1cnccn1 [pyrazinamide]" recorded_measurement=0.388
compound="CC(C)/N=c1\\cc2n(-c3ccc(Cl)cc3)c3ccccc3nc-2cc1Nc1ccc(Cl)cc1 [clofazimine] + COc1c(N2C[C@@H]3CCCN[C@@H]3C2)c(F)cc2c(=O)c(C(=O)O)cn(C3CC3)c12 [moxifloxacin] + CO[C@H]1/C=C/O[C@@]2(C)Oc3c(C)c(O)c4c(O)c(c(/C=N/N5CCN(C)CC5)c(O)c4c3C2=O)NC(=O)/C(C)=C\\C=C\\[C@H](C)[C@H](O)[C@@H](C)[C@@H](O)[C@@H](C)[C@H](OC(C)=O)[C@@H]1C [rifampicin]" recorded_measurement=1.12
compound="CC(=O)NC[C@H]1CN(c2ccc(N3CCOCC3)c(F)c2)C(=O)O1 [linezolid] + COc1c(N2C[C@@H]3CCCN[C@@H]3C2)c(F)cc2c(=O)c(C(=O)O)cn(C3CC3)c12 [moxifloxacin] + O=[N+]([O-])c1cn2c(n1)OC[C@@H](OCc1ccc(OC(F)(F)F)cc1)C2 [pretomanid]" recorded_measurement=-0.643
compound="NNC(=O)c1ccncc1 [isoniazid] + COc1c(N2C[C@@H]3CCCN[C@@H]3C2)c(F)cc2c(=O)c(C(=O)O)cn(C3CC3)c12 [moxifloxacin] + CO[C@H]1/C=C/O[C@@]2(C)Oc3c(C)c(O)c4c(O)c(c(/C=N/N5CCN(C)CC5)c(O)c4c3C2=O)NC(=O)/C(C)=C\\C=C\\[C@H](C)[C@H](O)[C@@H](C)[C@@H](O)[C@@H](C)[C@H](OC(C)=O)[C@@H]1C [rifampicin]" recorded_measurement=0.773
compound="CC(C)/N=c1\\cc2n(-c3ccc(Cl)cc3)c3ccccc3nc-2cc1Nc1ccc(Cl)cc1 [clofazimine] + NC(=O)c1cnccn1 [pyrazinamide] + CO[C@H]1/C=C/O[C@@]2(C)Oc3c(C)c(O)c4c(O)c(c(/C=N/N5CCN(C)CC5)c(O)c4c3C2=O)NC(=O)/C(C)=C\\C=C\\[C@H](C)[C@H](O)[C@@H](C)[C@@H](O)[C@@H](C)[C@H](OC(C)=O)[C@@H]1C [rifampicin]" recorded_measurement=0.653
compound="COc1nc2ccc(Br)cc2cc1[C@@H](c1ccccc1)[C@@](O)(CCN(C)C)c1cccc2ccccc12 [bedaquiline] + NNC(=O)c1ccncc1 [isoniazid] + CO[C@H]1/C=C/O[C@@]2(C)Oc3c(C)c(O)c4c(O)c(c(/C=N/N5CCN(C6CCCC6)CC5)c(O)c4c3C2=O)NC(=O)/C(C)=C\\C=C\\[C@H](C)[C@H](O)[C@@H](C)[C@@H](O)[C@@H](C)[C@H](OC(C)=O)[C@@H]1C [rifapentine]" recorded_measurement=0.867
compound="CC(=O)NC[C@H]1CN(c2ccc(N3CCOCC3)c(F)c2)C(=O)O1 [linezolid] + COc1c(N2C[C@@H]3CCCN[C@@H]3C2)c(F)cc2c(=O)c(C(=O)O)cn(C3CC3)c12 [moxifloxacin] + NC(=O)c1cnccn1 [pyrazinamide]" recorded_measurement=-0.0785
compound="CC[C@@H](CO)NCCN[C@@H](CC)CO [ethambutol] + NNC(=O)c1ccncc1 [isoniazid] + CO[C@H]1/C=C/O[C@@]2(C)Oc3c(C)c(O)c4c(O)c(c(/C=N/N5CCN(C)CC5)c(O)c4c3C2=O)NC(=O)/C(C)=C\\C=C\\[C@H](C)[C@H](O)[C@@H](C)[C@@H](O)[C@@H](C)[C@H](OC(C)=O)[C@@H]1C [rifampicin]" recorded_measurement=0.253
compound="COc1nc2ccc(Br)cc2cc1[C@@H](c1ccccc1)[C@@](O)(CCN(C)C)c1cccc2ccccc12 [bedaquiline] + NC(=O)c1cnccn1 [pyrazinamide] + CO[C@H]1/C=C/O[C@@]2(C)Oc3c(C)c(O)c4c(O)c(c(/C=N/N5CCN(C)CC5)c(O)c4c3C2=O)NC(=O)/C(C)=C\\C=C\\[C@H](C)[C@H](O)[C@@H](C)[C@@H](O)[C@@H](C)[C@H](OC(C)=O)[C@@H]1C [rifampicin]" recorded_measurement=0.905
compound="CC[C@@H](CO)NCCN[C@@H](CC)CO [ethambutol] + O=[N+]([O-])c1cn2c(n1)OC[C@@H](OCc1ccc(OC(F)(F)F)cc1)C2 [pretomanid] + NC(=O)c1cnccn1 [pyrazinamide]" recorded_measurement=-0.111
